Ki for 5-hydroxytryptamine receptor 2A (Sus scrofa, UniProt P50129) - collated from the literature.
experimental-endpoint: Ki (nM)

A: Brc1cccc(N2CCN(Cc3cc4ccccn4n3)CC2)n1
B: Brc1cccc(N2CCN(Cc3cnn4ccccc34)CC2)n1
stdin: Which numeric Ki is bigger, that of A or that of B ? State your choice using its label.
stdout: A
(A: 4400 nM, B: 1200 nM)

a: O=C(CCCN1CCN(c2ccc(Cl)cc2)CC1)c1cc2ccc1CCc1ccc(cc1)CC2
b: COc1ccccc1N1CCN(CCCCN2CCc3cc(-c4ccco4)ccc3C2=O)CC1
stdin: Which numeric Ki is bigger, that of a or that of b ? State your choice using its label.
stdout: a
(a: 1700 nM, b: 330 nM)

P: Cc1ccc(C)c(N2CCN(CCCC(=O)c3ccc(F)cc3)CC2)c1
Q: COc1cc(CN2CCN(c3ccc4c(c3)OCCO4)CC2)ccc1F
stdin: // pick min by Ki: P , Q State your choice using its label.
stdout: P
(P: 850 nM, Q: 4200 nM)

P: FCCOc1ccccc1N1CCN(Cc2cc3ccccn3n2)CC1
Q: COc1cc(CN2CCN(c3ccc(Cl)cc3)CC2)ccc1OCCF
stdin: Which numeric Ki is bigger, that of P or that of Q ? State your choice using its label.
stdout: P

I: COc1ccccc1N1CCN(Cc2cc(CN3CCOCC3)c3cccccc2-3)CC1
II: COc1ccccc1N1CCN(CCCCNC(=O)c2cc3ccc2CCc2ccc(cc2)CC3)CC1
III: FCCOc1ccc(N2CCN(Cc3cc4ccccn4n3)CC2)cc1
IV: Cc1ccc(C)c(C(=O)NCCCCN2CCN(c3cc(C)ccc3C)CC2)c1
V: C#Cc1c[nH]c(CN2CCN(c3ccccc3)CC2)c1
stdin: I would appreciate it if you could sort these 5 molecules by Ki, starting from the smallest number. Lab note: record answer as labels in requested order.
stdout: V, I, II, IV, III

P: Clc1ccc(N2CCN(Cc3cn4nc(Cl)ccc4n3)CC2)cc1
Q: COc1ccccc1N1CCN(Cc2cn3ccccc3n2)CC1
stdin: // pick min by Ki: P , Q State your choice using its label.
stdout: P
(P: 910 nM, Q: 5900 nM)

1: O=C(NCCCCN1CCN(c2cc3ccc2CCc2ccc(cc2)CC3)CC1)c1cc2ccccc2s1
2: COc1ccccc1N1CCN(CCCCNC(=O)/C=C/c2ccc(F)cc2)CC1
3: COc1ccccc1N1CCN(Cc2cccc(OCCF)c2)CC1
4: Cc1ccc(CNCC2(F)CCN(C(=O)c3cc(Br)cs3)CC2)nc1
5: COc1cc(CN2CCN(c3ccc(Cl)cc3)CC2)c(OCCF)cc1OC
stdin: I would appreciate it if you could sort these 5 molecules by Ki, starting from the smallest number. Lab note: record answer as labels in requested order.
stdout: 5, 2, 1, 3, 4

1: Clc1ccc(N2CCN(Cc3cc4ccccn4n3)CC2)cc1
2: N#Cc1cc(CN2CCN(c3ccccc3)CC2)c[nH]1
stdin: Which numeric Ki is bigger, that of 1 or that of 2 ? State your choice using its label.
stdout: 1

----------
Ki for 5-hydroxytryptamine receptor 2A (Sus scrofa, UniProt P50129) - collated from the literature.
experimental-endpoint: Ki (nM)

Examples with answers:
Cc1ccc(CNCC2(F)CCN(C(=O)c3csc4ccccc34)CC2)nc1 : 22000
Oc1ccc(N2CCN(Cc3cnn4ccccc34)CC2)cc1 : 24700
Clc1ccc2nc(CN3CCN(c4ccc(Cl)c(Cl)c4)CC3)cn2n1 : 1200
COc1ccccc1N1CCN(CCCCN2CCc3cc(-c4ccccc4)ccc3C2=O)CC1 : 330
Cc1ccc(C)c(N2CCN(CCCCNC(=O)c3cc4ccccc4s3)CC2)c1 : 1500

I: N#[11C]c1cccc(N2CCN(CCN3CCC(C(F)(F)F)CC3)C2=O)c1
II: COc1ccccc1N1CCN(CCCCN2CCc3cc(C#N)ccc3C2=O)CC1
III: COc1ccccc1N1CCN(Cc2ccc(OCCF)cc2)CC1
IV: COc1ccccc1N1CCN(Cc2ccc3cccccc2-3)CC1
stdin: I would appreciate it if you could sort these 4 compounds by Ki, starting from the smallest number. Lab note: record answer as labels in requested order.
stdout: IV, I, II, III

1: COc1ccccc1N1CCN(CCCCN2CCc3c(cccc3-c3ccccc3)C2=O)CC1
2: COc1ccccc1N1CCN(CCCCN2CCCc3ccccc3C2=O)CC1
stdin: // pick min by Ki: 1 , 2 State your choice using its label.
stdout: 1

1: FCCOc1ccc(N2CCN(Cc3cnn4ccccc34)CC2)cc1
2: C#Cc1cc(CN2CCN(c3ccccc3OC)CC2)c2cccccc1-2
3: COc1ccccc1N1CCN(Cc2cc(C#N)c3cccccc2-3)CC1
stdin: I would appreciate it if you could sort these 3 compounds by Ki, starting from the smallest number. Lab note: record answer as labels in requested order.
stdout: 3, 2, 1
(3: 380 nM, 2: 2100 nM, 1: 14000 nM)

P: O=C(NCCCCN1CCN(c2cc3ccc2CCc2ccc(cc2)CC3)CC1)c1cc2ccc1CCc1ccc(cc1)CC2
Q: COc1ccc2c(c1)CCCN(CCCCN1CCN(c3ccccc3OC)CC1)C2=O
stdin: // pick min by Ki: P , Q State your choice using its label.
stdout: Q
(Q: 810 nM, P: 8200 nM)

1: O=C(CCCN1CCN(c2cc3ccc2CCc2ccc(cc2)CC3)CC1)c1ccc(F)cc1
2: COc1ccccc1N1CCN(CCCCN2CCc3cc(-c4ccncc4)ccc3C2=O)CC1
stdin: Which numeric Ki is bigger, that of 1 or that of 2 ? State your choice using its label.
stdout: 1
(1: 450 nM, 2: 160 nM)
